Source of measurements: paper PMC10288926

molecular target: c-MET (Homo sapiens); assay: HTRF kinase inhibitory assay, c-MET; assay type: biochemical; conditions: read-out: c-MET Inhibition (1μM)
Sequence (P08581 25-1390): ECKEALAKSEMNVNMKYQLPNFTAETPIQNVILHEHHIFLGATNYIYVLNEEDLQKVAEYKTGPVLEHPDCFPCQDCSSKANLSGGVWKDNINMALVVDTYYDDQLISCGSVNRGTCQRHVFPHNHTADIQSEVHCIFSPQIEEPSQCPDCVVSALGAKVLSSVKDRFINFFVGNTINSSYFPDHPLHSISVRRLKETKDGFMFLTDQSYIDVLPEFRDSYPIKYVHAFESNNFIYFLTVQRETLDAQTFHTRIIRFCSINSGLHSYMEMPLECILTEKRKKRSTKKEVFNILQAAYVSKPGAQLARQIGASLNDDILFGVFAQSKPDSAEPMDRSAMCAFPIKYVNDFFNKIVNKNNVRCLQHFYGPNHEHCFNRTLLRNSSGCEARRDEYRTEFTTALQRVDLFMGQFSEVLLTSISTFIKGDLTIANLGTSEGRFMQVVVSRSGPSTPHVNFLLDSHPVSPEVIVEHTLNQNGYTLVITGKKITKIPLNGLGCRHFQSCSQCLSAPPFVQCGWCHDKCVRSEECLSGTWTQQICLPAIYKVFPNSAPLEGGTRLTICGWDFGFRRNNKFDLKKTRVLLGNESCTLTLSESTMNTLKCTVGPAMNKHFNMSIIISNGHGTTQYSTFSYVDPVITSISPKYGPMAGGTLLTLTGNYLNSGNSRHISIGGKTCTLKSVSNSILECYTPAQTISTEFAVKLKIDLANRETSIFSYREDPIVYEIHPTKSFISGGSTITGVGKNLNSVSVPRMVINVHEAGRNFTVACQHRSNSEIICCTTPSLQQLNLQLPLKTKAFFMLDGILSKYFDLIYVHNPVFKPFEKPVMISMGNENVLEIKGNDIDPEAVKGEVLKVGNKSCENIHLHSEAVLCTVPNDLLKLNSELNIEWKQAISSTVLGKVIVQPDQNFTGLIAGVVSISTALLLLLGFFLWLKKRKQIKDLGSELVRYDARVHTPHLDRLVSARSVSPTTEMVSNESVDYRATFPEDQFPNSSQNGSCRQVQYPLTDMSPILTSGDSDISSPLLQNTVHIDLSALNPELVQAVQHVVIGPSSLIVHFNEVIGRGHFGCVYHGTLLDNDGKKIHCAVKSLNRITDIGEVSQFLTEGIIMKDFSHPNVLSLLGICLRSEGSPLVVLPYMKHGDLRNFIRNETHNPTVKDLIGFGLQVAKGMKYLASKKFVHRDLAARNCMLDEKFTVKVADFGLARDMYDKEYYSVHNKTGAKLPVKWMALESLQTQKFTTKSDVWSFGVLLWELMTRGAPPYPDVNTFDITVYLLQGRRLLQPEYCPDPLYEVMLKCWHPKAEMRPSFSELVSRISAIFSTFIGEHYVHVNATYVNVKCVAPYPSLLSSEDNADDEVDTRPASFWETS
PROPERTY: inhibition at 1 µM (%)

Answered examples (6):
STRUCTURE NOTATION: CCCn1cc(-c2cnc(N)c(O[C@H](C)c3ccccc3-c3ccccc3)c2)cn1
VALUE OBSERVED: 60
//
STRUCTURE NOTATION: CCn1cc(-c2cnc(N)c(O[C@H](C)c3ccccc3F)c2)cn1
VALUE OBSERVED: 18
//
STRUCTURE NOTATION: CCCn1cc(-c2cnc(N)c(O[C@H](C)c3ccccc3F)c2)cn1
VALUE OBSERVED: 22
//
STRUCTURE NOTATION: C[C@@H](Oc1cc(-c2ccnn2C)cnc1N)c1ccccc1-c1ccnn1C
VALUE OBSERVED: 6
//
STRUCTURE NOTATION: C[C@@H](Oc1cc(-c2cnn(C)c2)cnc1N)c1ccccc1F
VALUE OBSERVED: 11
//
STRUCTURE NOTATION: C[C@@H](Oc1cc(-c2cnn(C)c2)cnc1N)c1ccccc1-c1ccccc1
VALUE OBSERVED: 64

a: C[C@@H](Oc1cc(-c2ccnn2C)cnc1N)c1ccccc1-c1ccccc1
b: C[C@@H](Oc1cc(-c2cccn2C)cnc1N)c1ccccc1F
Param pair: a , b . Output: the one whose inhibition at 1 µM is numerically greater. Indicate your choice by writing its label.
a
(a: 8%, b: -10%)
